System: Oncorhynchus mykiss
Condition set: acute; duration: 96 hours; mortality
Provide the reported LC50 of each item.

Field: example entries. Status: answers known.
Data point: CCOC(=O)C(Cl)Cc1cc(-n2nc(C)n(C(F)F)c2=O)c(F)cc1Cl (stereo not drawn) ; LC50 = 1.6 µg/mL

Data point: Cc1nn(-c2cc(CC(C(=O)O)S(=O)(=O)O)c(Cl)cc2F)c(=O)n1C(F)F (stereo not drawn) ; LC50 = > 100 µg/mL

Data point: `O=C(O)c1cc(-n2nc(C(=O)O)n(C(F)F)c2=O)c(F)cc1Cl` ; LC50 = > 100 µg/mL

Data point: Cc1nn(-c2cc(CC(Cl)C(=O)O)c(Cl)cc2F)c(=O)n1C(F)F (stereo not drawn) ; LC50 = > 99.2 µg/mL

Data point: `Cc1n[nH]c(=O)n1C(F)F` ; LC50 = > 100 µg/mL

For every item below, please supply its LC50.
1. COc1cc(-n2nc(C)n(C(F)F)c2=O)c(F)cc1Cl
2. O=C(O)c1cc(-n2nc(CO)n(C(F)F)c2=O)c(F)cc1Cl

Outgoing:
> 20.9 µg/mL
> 100 µg/mL

Data point: `Cc1nn(-c2cc(C(=O)O)c(Cl)cc2F)c(=O)n1C(F)F` ; LC50 = > 92.5 µg/mL
